tgt: UniProt P11387
Sequence (P11387 whole entry): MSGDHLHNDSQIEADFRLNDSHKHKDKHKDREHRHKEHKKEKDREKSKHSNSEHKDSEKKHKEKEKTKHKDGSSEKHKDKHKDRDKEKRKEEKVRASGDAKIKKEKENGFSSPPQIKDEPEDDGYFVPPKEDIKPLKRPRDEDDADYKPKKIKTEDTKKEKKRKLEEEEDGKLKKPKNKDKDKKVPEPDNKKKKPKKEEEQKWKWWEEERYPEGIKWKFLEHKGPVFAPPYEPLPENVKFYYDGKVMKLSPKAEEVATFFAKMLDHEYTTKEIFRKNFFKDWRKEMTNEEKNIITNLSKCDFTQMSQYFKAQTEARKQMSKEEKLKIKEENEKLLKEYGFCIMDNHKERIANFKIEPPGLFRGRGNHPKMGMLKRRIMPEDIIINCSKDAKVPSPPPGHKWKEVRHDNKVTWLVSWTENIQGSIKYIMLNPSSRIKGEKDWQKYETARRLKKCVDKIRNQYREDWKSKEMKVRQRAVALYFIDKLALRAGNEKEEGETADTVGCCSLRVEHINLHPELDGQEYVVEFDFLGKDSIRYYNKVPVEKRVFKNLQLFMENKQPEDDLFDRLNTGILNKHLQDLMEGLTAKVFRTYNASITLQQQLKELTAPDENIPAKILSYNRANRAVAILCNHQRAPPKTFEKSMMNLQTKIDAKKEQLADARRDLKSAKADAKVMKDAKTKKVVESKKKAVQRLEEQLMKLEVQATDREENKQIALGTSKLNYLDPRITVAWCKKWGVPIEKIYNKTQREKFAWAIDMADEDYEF
method_summary: Inhibition of human DNA topoisomerase 1-mediated relaxation of supercoiled DNA by gel electrophoresis
Provide the reported IC50 of each item.
Numeric only. Scale: µM

Given the entry C/C=C(/C)C(=O)O[C@H]1[C@H](OC(=O)C(C)CC)[C@]2(CO)[C@H](O)C[C@]3(C)C(=CC[C@@H]4[C@@]5(C)CC[C@H](O[C@@H]6O[C@H](C(=O)O)[C@@H](O)[C@H](O[C@@H]7O[C@@H](CO)[C@H](O)[C@H]7O)[C@H]6O[C@@H]6O[C@H](CO)[C@H](O)[C@H](O)[C@H]6O)C(C)(C)[C@@H]5CC[C@]43C)[C@@H]2CC1(C)C (stereo partly drawn) [AESCULIOSIDE IVC] , report its measured IC50.
49.7

Ok, now C/C=C(/C)C(=O)O[C@H]1[C@H](O)[C@]2(CO)[C@H](O)[C@H](O)[C@]3(C)C(=CC[C@@H]4[C@@]5(C)CC[C@H](O[C@@H]6O[C@H](C(=O)O)[C@@H](O)[C@H](O[C@@H]7O[C@@H](CO)[C@H](O)[C@H]7O)[C@H]6O[C@@H]6O[C@H](CO)[C@H](O)[C@H](O)[C@H]6O)C(C)(C)[C@@H]5CC[C@]43C)[C@@H]2CC1(C)C [AESCULIOSIDE IIA]
109

Measured values drawn from ChEMBL document CHEMBL1157938 for this set.
